assay: Pharmacokinetics of almonertinib in rats, alone and after multiple doses of rivaroxaban or apixaban; type: in vivo, Sprague-Dawley (SD) rats; conditions: male, Sprague-Dawley, rat, plasma, po, 15 mg/kg, rats, oral almonertinib 15 mg/kg alone (group 3, control solvent of rivaroxaban), mean ± SD, n = 6; read-out: t1/2z (converted)
measurement-type: half-life

What half-life value was documented for this compound, C=CC(=O)Nc1cc(Nc2nccc(-c3cn(C4CC4)c4ccccc34)n2)c(OC)cc1N(C)CCN(C)C [almonertinib, Almonertinib] ? 2.18 h

----------
assay: Pharmacokinetics of almonertinib in rats, alone and after multiple doses of rivaroxaban or apixaban; format: in vivo, Sprague-Dawley (SD) rats; conditions: male, Sprague-Dawley, rat, plasma, po, 15 mg/kg, rats, oral almonertinib 15 mg/kg alone (group 3, control solvent of rivaroxaban), mean ± SD, n = 6
measurement-type: Tmax (h)
Write the value in h as a bare number.

For the compound shown here, C=CC(=O)Nc1cc(Nc2nccc(-c3cn(C4CC4)c4ccccc34)n2)c(OC)cc1N(C)CCN(C)C , give the reported Tmax. 2.17

Entry source: paper PMC10582335
